Target: T1, pig CD47 (pig, UniProt Q9GKE8 19-303)
T1 construct: whole, on cells; also called CD47 on pig red blood cells
T1 sequence (looked up): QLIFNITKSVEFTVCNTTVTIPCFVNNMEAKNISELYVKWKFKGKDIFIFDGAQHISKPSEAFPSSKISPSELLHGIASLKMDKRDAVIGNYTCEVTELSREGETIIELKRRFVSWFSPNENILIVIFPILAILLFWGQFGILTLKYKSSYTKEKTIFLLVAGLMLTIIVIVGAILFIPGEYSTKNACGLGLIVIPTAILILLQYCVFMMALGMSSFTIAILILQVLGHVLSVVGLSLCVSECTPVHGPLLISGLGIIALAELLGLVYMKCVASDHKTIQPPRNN
Assay: flow cytometry on RBCs, antibody 10 ng/ml
VALUE KIND: mean fluorescence relative to chimeric antibody

pVxK7b-037-hum03-LC/pVxK7b-037-hum03-HC (antibody, human IgG1, V domains shown, Full-length human IgG1/kappa in CHO supernatant; Variable entries end within framework 4 (...FGQG / ...WGQG); also called Clone 3) VH: EVQLVQSGAEVKKPGESLRISCKGSGYTFTNYYVFWVRQARGQRLEWIGDINPVNGDTNFNEKFKNRVTITADKSTSTAYMELSSLRSEDTAVYYCARGGYTMDYWGQG VL: DVVMTQSPLSLPVTLGQPASISCRSSQSLVHSNGNTYLHWYQQKPGKAPKLLIYKVSYRFSGVPDRFSGSGSGTDFTLKISRVEAEDVGVYYCSQNTHVPRTFGQG; 0.9 fold of chimera
pVxK7b-037-hum17-LC/pVxK7b-037-hum17-HC (antibody, human IgG1, V domains shown, Full-length human IgG1/kappa in CHO supernatant; Variable entries end within framework 4 (...FGQG / ...WGQG); also called Clone 17) VH: EVQLVQSGAEVKKPGATVKISCKVSGYTFTNYYVFWIRQPPGKGLEWIGDINPVNGDTNFNEKFKNRVTITADKSTSTAYMELSSLRSEDTAVYYCARGGYTMDYWGQG VL: AIQLTQSPSSLSASVGDRVTITCRSSQSLVHSNGNTYLHWYQQKPGQAPRLLIYKVSYRFSGVPDRFSGSGSGTDFTLKISRVEAEDVGVYYCSQNTHVPRTFGQG; 1.3 fold of chimera
pVxK7b-037-hum13-LC/pVxK7b-037-hum13-HC (antibody, human IgG1, V domains shown, Full-length human IgG1/kappa in CHO supernatant; Variable entries end within framework 4 (...FGQG / ...WGQG); also called Clone 13) VH: EVQLVQSGAEVKKPGESLRISCKGSGYTFTNYYVFWIRQSPSRGLEWLGDINPVNGDTNFNEKFKNRVTITADKSTSTAYMELSSLRSEDTAVYYCARGGYTMDYWGQG VL: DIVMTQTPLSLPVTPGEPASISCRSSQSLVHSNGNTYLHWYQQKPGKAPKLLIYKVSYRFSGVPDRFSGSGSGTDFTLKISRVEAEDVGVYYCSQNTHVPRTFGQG; 1.4 fold of chimera
pVxK7b-037-hum06-LC/pVxK7b-037-hum06-HC (antibody, human IgG1, V domains shown, Full-length human IgG1/kappa in CHO supernatant; Variable entries end within framework 4 (...FGQG / ...WGQG); also called Clone 6) VH: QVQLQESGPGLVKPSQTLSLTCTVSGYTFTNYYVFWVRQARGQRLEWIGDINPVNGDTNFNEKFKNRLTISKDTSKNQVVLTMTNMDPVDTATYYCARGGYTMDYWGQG VL: DIQMTQSPSSLSASVGDRVTITCRSSQSLVHSNGNTYLHWYLQKPGQSPQLLIYKVSYRFSGIPARFSGSGSGTEFTLTISSLQSEDFAVYYCSQNTHVPRTFGQG; 1.1 fold of chimera

Request: Name the reported mean fluorescence relative to chimeric antibody value associated with the binder pVxK7b-037-hum07-LC/pVxK7b-037-hum07-HC (antibody, human IgG1, V domains shown, Full-length human IgG1/kappa in CHO supernatant; Variable entries end within framework 4 (...FGQG / ...WGQG); also called Clone 7) VH: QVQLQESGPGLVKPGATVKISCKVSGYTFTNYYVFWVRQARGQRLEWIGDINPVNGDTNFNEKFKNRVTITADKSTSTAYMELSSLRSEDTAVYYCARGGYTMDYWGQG VL: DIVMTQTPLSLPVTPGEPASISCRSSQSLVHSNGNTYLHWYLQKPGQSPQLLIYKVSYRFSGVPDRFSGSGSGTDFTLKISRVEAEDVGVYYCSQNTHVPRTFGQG
Result: 0.9 fold of chimera

src = patent US20140161799A1
